system: SF-539 CNS; experiment: NCI-60 one-dose screen, 48 h (100 = growth as untreated, 0 = no growth, -100 = all killed); details: 10 µM unless noted
The panel holds about 83,000 compounds, 20% with a hit somewhere; the sample as a whole holds those more often. Calls of active or inactive are those of the source. Rule for the calls: active = growth percent below 10; inactive = the rest.
growth reference

| compound | growth |
| --- | --- |
| C=C1CCC2C3(C)COC(c4ccc(N(C)C)cc4)OC3CCC2(C)C1C/C=C1/C(=O)OCC1O (centres undefined) | 99.2% (inactive) |
| N/C(=N\C(N)=N\c1nc2ccccc2s1)c1cccc(Br)c1 | 98.6% (inactive) |
| COc1cccc(CC(C)=C(c2ccc(OCCN(C)C)cc2)c2ccc(OCCN(C)C)cc2)c1 | -93.1% (active) |
| CC1CN(c2oc(-c3ccccc3)nc2C#N)CC(C)O1 (centres undefined) | 98.6% (inactive) |
| COc1ccc(S(=O)(=O)NCCCNc2nccc(-n3ccc4cccnc43)n2)cc1 | 100% (inactive) |
| CC12CCC3C4(C)COC(c5ccccc5Cl)OC4CCC3(C)C1CC(C1=CCOC1=O)O2 (centres undefined) | 84.7% (inactive) |
| COc1ccc(/C=C(\C#N)c2cc(OC)c3c(c2)OCO3)cc1 | 4.3% (active) |
| C=CCn1c2ccccc2c2c3c(c4c5ccccc5n(CC=C)c4c21)C(=O)N(O)C3=O | 2.86% (active) |
| COc1cc(/C=N\NC(=O)CN2CCN(c3cc4c(cc3F)c(=O)c(C(=O)N/N=C/c3cc(OC)c(OC)c(OC)c3)cn4C3CC3)CC2)cc(OC)c1OC | -68.2% (active) |

* * *

Test system: SW-620 colon
Experiment: NCI-60 one-dose screen, 48 h (100 = growth as untreated, 0 = no growth, -100 = all killed)
Settings: 10 µM unless noted
Protocol: Growth inhibition of the SW-620 human tumor cell line is measured as a screen for anti-cancer activity. Cells are grown in 96 well plates and exposed to the test compound for 48 hours. Compounds are tested at a single concentration, which is 10^-5 M for most compounds. The reported endpoint is percent growth (GI% or GIPRCNT), where numbers from 0 - 100% represent growth inhibition, and numbers from -100% - 0 represent cell death. For example, a value of 40 represents 60% growth inhibition. […]
About 83,000 compounds went through this panel and 20% of them were active in at least one assay; those are over-represented in the sample as a whole.
growth reference

| compound | target | units-of-measure | growth |
| --- | --- | --- | --- |
| CC12CCC3C4(C)COC(c5ccccc5Cl)OC4CCC3(C)C1CC(C1=CCOC1=O)O2 (stereo not given) | SW-620 colon | % | 84.7 |
| FC(F)(F)c1cccc(-c2cn3c(ccc4ccccc43)n2)c1 | SW-620 colon | % | 89.5 |
| COc1ccc(C2C=C(c3ccc(N)cc3)N=C3SC=CN32)cc1OC (stereo not given) | SW-620 colon | % | 112 |
| COc1cccc(/C=C2\Oc3cc(OCCCN4CCCC4)ccc3C2=O)c1OC | SW-620 colon | % | 98.6 |
| CCOC(=O)c1cc(C(=O)c2cc(OC)c(OC)c(OC)c2)n2c1ccc1ccccc12 | SW-620 colon | % | 18.8 |
| NC1=C(/C(N)=N/O)C(c2ccccc2)c2ccc3ccccc3c2O1 (stereo not given) | SW-620 colon | % | 23 |
| Cn1ncc2c(Sc3ccc(Cl)cc3)ncnc21 | SW-620 colon | % | 100 |
| CCOC(=O)c1ccc2c(c1)nc(-c1ccc(OCc3ccccc3)c(OC)c1)n2-c1cc(C(C)(C)C)[nH]n1 | SW-620 colon | % | 98 |
| COc1cc(/C=C/C(=O)/C=C/c2cc(OC)c3c(c2)OCO3)cc2c1OCO2 | SW-620 colon | % | 11.5 |
| Cc1ccc(-c2cc3nc(C(Cl)Cl)nc(-c4ccccc4C)n3n2)cc1 | SW-620 colon | % | 46.1 |
